System: RAW264.7
Test: Antiinflammatory activity against mouse RAW264.7 cells assessed as reduction of LPS-induced NO production after 24 hrs
Type: functional, cell-based
Conditions: RAW264.7, 24 h
pIC50: −log10 of the molar value.
READOUT TYPE: pIC50

Guide cases for pIC50, answers given:
>  <COMPOUND>
COc1cc(OC)c2ccc(=O)oc2c1CC=C(C)C

>  <pIC50>
4.48

$$$$
>  <COMPOUND>
CCOC(C)(C)[C@@H](O)Cc1c(OC)c(OC)c(OC)c2ccc(=O)oc12

>  <pIC50>
4.47

$$$$
>  <COMPOUND>
COc1ccc2c(c1)c(CC(=O)O)c(C)n2C(=O)c1ccc(Cl)cc1

>  <pIC50>
5.20

$$$$

P. COc1cc(OC)c2ccc(=O)oc2c1/C=C/C(C)=O
Q. COc1cc(OC)c2ccc(=O)oc2c1CC=O
Ask: When their pIC50 values are compared, which is larger, P or Q ? Reply with the label of the item you choose.
Reply: P
(P: 5.22, Q: 4.86)

---

Tested on: RAW264.7
Assay: Antiinflammatory activity against mouse RAW264.7 cells assessed as reduction of LPS-induced NO production after 24 hrs
Type: functional, cell-based
Details: RAW264.7, 24 h
pIC50: −log10 of the molar value.
READOUT TYPE: pIC50

>  <MOLECULE>
COc1cc2cc(COC(=O)CC(C)C)ccc2c2oc(=O)ccc12

>  <TARGET OF ASSAY>
RAW264.7

>  <READOUT TYPE>
pIC50

>  <ENDPOINT VALUE>
5.04

$$$$
>  <MOLECULE>
C=C(C)[C@@H](O)Cc1c(OC)cc(OC)c2ccc(=O)oc12

>  <TARGET OF ASSAY>
RAW264.7

>  <READOUT TYPE>
pIC50

>  <ENDPOINT VALUE>
4.91

$$$$
>  <MOLECULE>
C=C(C)[C@H](O)[C@H](O)c1c(OC)ccc2ccc(=O)oc12 (relative stereo)

>  <TARGET OF ASSAY>
RAW264.7

>  <READOUT TYPE>
pIC50

>  <ENDPOINT VALUE>
4.91

$$$$
